Molecular target: RBDSARS-CoV (SARS-CoV S protein residues 318-510, C-terminal His-tag) (SARS-CoV, UniProt P59594 318-510)
Test: ELISA
endpoint.name: IC50

Looking up 4P-26 (VHH) VHH: QVQLVESGGGLVQAGGSLRLSCAASGDTLRSYNMGWFRQAPGKEREFVAVISWTGVGTYYGDSVKGRFTISRDVIKNTLYLQMDSLKPEDTAIYYCAADSTTYRLHSAGSDYLYWGQGTQVTVSS , I see its IC50 listed as > 8 µM

Memo: 5p-127 (VHH) VHH: EVQLVESGGGLVQAGGSLRLSCAASRIFSTSAMGWFRQAPGKEREFVAAISWSGTDTHYANSVKGRFAISTDAAKNTVYLQMNSLEPEDTAVYYCAQGGWGVRQPVEVDYWGKGTQVTVSS , reported IC50: < 0.01 µM

Per the records, this binder ( 5p-168 (VHH) VHH: DVQLVESGGGLVQAGASLRLSCVVSGVTFSTYGMAWFRQAPEKQRTFVATITREDTTFYADSVKGRFTISRDNAKNTVYLQMNSLKLEDTAVYYCAVRRDSSWGYSRDLFEYDDWGQGTQVTVSS ) has IC50 equal to < 0.01 µM

Just so you know, measured IC50 for 5p-59 (VHH) VHH: QVQLVESGGGLVQAGGSLRLSCAVSGRTISTFGMAWFRQAPGKVREFVATITRDEDLTLYADSVKGRFTISRDTAKNTVFLQMNSLKIEDTALYYCAVRRDDSWGYSRQSIEYDYWGQGTQVTVSS came out at > 8 µM
